Test: Solubility by shake flask method (24 h, HPLC)
Format: physicochemical
Conditions: FeSSIF-V2, 37 °C, pH 5.8, fessif, thermodynamic from solid, FeSSIF-V2, pH 5.8, 37° C., n=3 mean, read-out: Solubility Measurements (mean value) (24 h)
Procedure: The solubility of compounds of formula (Ia) obtained according to Example 2.12. and compounds of formula (II-A), (II-Ax) and (II-B) obtained respectively according to Examples 3.2. and 4.2., was determined in different media while using the shake flask method. […] The solubility of compounds (Ia), (II-A), (II-Ax) and (II-B) was determined in triplicate (n=3) and mean value calculated. […]
compounds and their reported solubility at 24 h

1. C[C@H]1c2cccc(C(C)(C)O)c2C[C@H](CO)N1C(=O)Cc1c(Cl)ccc2c1c(Cl)nn2C [(Ia), reference compound] ... ~4 µg/mL

## Task Fill in: solubility at 24 h of CC(C)[C@H](N)C(=O)OC[C@H]1Cc2c(cccc2C(C)(C)O)[C@H](C)N1C(=O)Cc1c(Cl)ccc2c1c(Cl)nn2C [(II-B)] is ___
## Result ~900 µg/mL
